# System: PA-1
# EXPERIMENTAL_DETAILS: Primary qHTS to identify gynecologic anti-cancer compounds using libraries of approved drugs and bioactive compounds (AID 1345084); also: % is scaled to controls: 0 for no effect and ±100 for the full control effect; nearly all actives have a fitted effect of over 55% in size
# CONDITION_SET: Gynecologic cancer cell panel viability, ATPlite luminescence, 48 h; series mostly up to 57.5 µM
Records with an inconclusive call do not appear. Active and inactive are the calls of the source. Calls follow the shape of the dose curve; as a rule, active = well fitted cell-killing curve with a large enough effect; inconclusive = small, poorly fitted or top-dose-only effect, or effect the other way; inactive = flat fitted curve, though single readings scatter. Where a SMILES comes first, the peptide text is derived from it.
EXPERIMENTAL_READOUT: activity change, negative = cytotoxicity

# annotated cases, reported activity change, negative = cytotoxicity shown
COMPOUND	RECORDED_VALUE
C=C(C(=O)OC)[C@]12O[C@@](C)(CC[C@@]3(O)/C(=C\C)C(=O)O[C@]3(C)C[C@@H]1OC(=O)C(CO)CN1CCCC1C(=O)O)CC2=O (some centres undefined)	inactive
O=C(O)C(Cc1ccccc1)NC(=O)C1CCCN1 (stereo not drawn) (H-Pro-Phe-OH; configuration not given here)	inactive
CC(C)C1C(OC(=O)/C=C/c2ccccc2)CC2(C)OC2CCC2(C)OC2C1O (centres undefined)	inactive
CC(=O)OC1CC(=O)C2(C)C3CC4=C(OC(C)CC4=O)OC3(C)CCC2C1(C)C (centres undefined)	inactive
CC(=O)OC[C@]12[C@H](OC(C)=O)[C@H](OC(=O)c3ccccc3)[C@@H]3[C@@H](OC(C)=O)[C@]1(OC3(C)C)[C@H](C)C[C@H](OC(=O)c1ccccc1)[C@@H]2OC(=O)c1ccccc1	inactive

Please find the next compound below.
Query block: Need activity change, negative = cytotoxicity of C[C@H]1CC[C@@]2(OC1)O[C@H]1CC3C4CC[C@H]5C[C@@H](O[C@@H]6O[C@H](CO)[C@H](O[C@@H]7O[C@H](CO)[C@@H](O)[C@H](O[C@@H]8OC[C@@H](O)[C@H](O)[C@H]8O)[C@H]7O[C@@H]7O[C@H](CO)[C@@H](O)[C@H](O)[C@H]7O)[C@H](O)[C@H]6O)[C@H](O)C[C@]5(C)C4=CC(=O)[C@]3(C)[C@H]1[C@@H]2C (some centres undefined) , thanks.
Result block: 7.95% [at 11.6 µM] (inactive)

Reference source: PubChem BioAssay (NCATS)
